- System: prototrophic yeast strain (CEN.PK113-7D)
- procedure-details: Propidium iodide fluorescence-based CLS method in yeast (incl. high-throughput screening);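 note: untreated reference is eight DMSO and water control wells per plate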
- Format: cell-based, Saccharomyces cerevisiae
- study-conditions: concentration tested 100 μM; solvent DMSO or water; chronological age point Day 7 (72 h growth = Day 1); lower = more survival
Listed next: entries and their corresponding PI intensity.
property-name: PI intensity

• CC(C)(O)CCc1c(O)cc(O)c2c(=O)c(O)c(-c3ccc(O)cc3)oc12 = 77,179.8
• CC[C@H]1CN2CC[C@]3(C(=O)Nc4ccccc43)[C@@H]2C[C@@H]1/C(=C\OC)C(=O)OC = 55,562.5
• CC1=C(C(=O)O)N2C(=O)[C@@H](NC(=O)[C@H](N)c3ccc(O)cc3)[C@H]2SC1 [Cefadroxil, reference compound] = 70,326.1
• CC(C)(CO)C(O)C(=O)NCCCO (racemic) = 71,468.6
• N[C@@H](CCO)C(=O)O = 60,922.1
• C[C@@H]1CC[C@@]2(OC1)O[C@H]1C[C@H]3[C@@H]4CC=C5C[C@@H](O[C@@H]6O[C@H](CO)[C@@H](O[C@@H]7O[C@H](CO)[C@@H](O)[C@H](O)[C@H]7O)[C@H](O)[C@H]6O[C@@H]6O[C@@H](C)[C@H](O)[C@@H](O)[C@H]6O)CC[C@]5(C)[C@H]4CC[C@]3(C)[C@H]1[C@@H]2C = 62,357.6
• Cc1ccc(C(C)C)c(O)c1 = 61,503.8
• C[C@H](Cn1cnc2c(N)ncnc21)OCP(=O)(O)O.O [Tenofovir (hydrate), reference compound] = 76,065.0
• C#CC1(O)CC[C@H]2[C@@H]3CCC4=CC(=O)CC[C@@H]4[C@H]3CC[C@@]21CC (mixture of isomers) [Norgestrel, reference compound] = 75,338.8
• C[C@@H]1O[C@@H](O[C@H]2[C@H](O[C@H]3CC[C@@]4(C)[C@@H](CC[C@]5(C)[C@@H]4CC=C4[C@@H]6CC(C)(C)CC[C@]6(C(=O)O[C@@H]6O[C@H](CO[C@@H]7O[C@H](CO)[C@@H](O[C@@H]8O[C@@H](C)[C@H](O)[C@@H](O)[C@H]8O)[C@H](O)[C@H]7O)[C@@H](O)[C@H](O)[C@H]6O)CC[C@]45C)[C@]3(C)CO)OC[C@H](O)[C@@H]2O)[C@H](O)[C@H](O)[C@H]1O [Hederacoside C] = 73,515.9
• C=C1[C@H](OC(=O)c2ccccc2)C[C@H]2[C@@H](/C=C(\C)C(=O)[C@@]3(OC(C)=O)C[C@H](C)[C@H](OC(=O)c4ccccc4)[C@@H]3[C@H]1OC(C)=O)C2(C)C = 68,871.8
• OC[C@H]1O[C@@H](O[C@H]2[C@H](O)[C@@H](O)[C@H](O)O[C@@H]2CO)[C@H](O)[C@@H](O)[C@@H]1O [D-(+)-Cellobiose] = 69,857.4
• C[C@@H](O)[C@H]1C(=O)N2C(C(=O)[O-])=C(SC3Cn4cnc[n+]4C3)[C@H](C)[C@H]12 (stereo partly shown) [Biapenem, reference compound] = 71,409.3
• O=C(O)[C@H]1CCCN1 [(R)-pyrrolidine-2-carboxylic acid] = 80,551.7
• COS(=O)(=O)[O-].C[N+]1(C)CCC(=C(c2ccccc2)c2ccccc2)CC1 [Diphenmanil (methylsulfate), reference compound] = 78,623.4
• O=C(O)c1cc(O)cc(O)c1 [3,5-Dihydroxybenzoic acid] = 59,369.7
• CO[C@H]1C[C@@H]2CC[C@@H](C)[C@@](O)(O2)C(=O)C(=O)N2CCCC[C@H]2C(=O)O[C@H]([C@H](C)C[C@@H]2CC[C@@H](O)[C@H](OC)C2)CC(=O)[C@H](C)/C=C(\C)[C@@H](O)[C@@H](OC)C(=O)[C@H](C)C[C@H](C)/C=C/C=C/C=C/1C [Rapamycin, reference compound] = 21,460.5
• C[C@@H](O)[C@H]1C(=O)N2C(C(=O)O)=C(S[C@@H]3CN[C@H](CNS(N)(=O)=O)C3)[C@H](C)[C@H]12 [Doripenem (monohydrate), reference compound] = 69,608.7
• COc1cc2c(c(OC)c1OC)-c1c(cc3c(c1OC)OCO3)C[C@H](C)[C@@](C)(O)C2 = 80,051.7
• Cc1ccc(C(C)C)cc2c(C)ccc1-2 = 58,776.1
• c1ncc2[nH]cnc2n1 = 53,185.1
• OCC1=C[C@@H](O)[C@@H]2C=CO[C@@H](O[C@@H]3O[C@H](CO)[C@@H](O)[C@H](O)[C@H]3O)[C@H]12 = 58,414.0
• O=C(/C=C/c1ccc(O)c(O)c1)O[C@@H]1C[C@](O)(C(=O)O)C[C@@H](OC(=O)/C=C/c2ccc(O)c(O)c2)[C@H]1O = 63,157.7
• COc1ccc(CC(=O)O)cc1OC = 70,394.7
• C=C1CC[C@H](O)C/C1=C/C=C1\CCC[C@]2(C)[C@@H]([C@H](C)CCCC(C)(C)O)CC[C@@H]12 [Calcifediol, reference compound] = 60,747.4

// provenance: patent US20250161338A1
